Answer each item with its documented pIC50.
molecular target: human Lck enzyme (Homo sapiens); construct: purchased Carna Biosciences, Inc. 08-170; assay: Lck enzyme inhibitory activity (time-resolved fluorometry, biotinylated peptide phosphorylation); assay type: biochemical; conditions: biotinylated peptide phosphorylation, read-out: LCK_IC50
Sequence (P06239 whole entry): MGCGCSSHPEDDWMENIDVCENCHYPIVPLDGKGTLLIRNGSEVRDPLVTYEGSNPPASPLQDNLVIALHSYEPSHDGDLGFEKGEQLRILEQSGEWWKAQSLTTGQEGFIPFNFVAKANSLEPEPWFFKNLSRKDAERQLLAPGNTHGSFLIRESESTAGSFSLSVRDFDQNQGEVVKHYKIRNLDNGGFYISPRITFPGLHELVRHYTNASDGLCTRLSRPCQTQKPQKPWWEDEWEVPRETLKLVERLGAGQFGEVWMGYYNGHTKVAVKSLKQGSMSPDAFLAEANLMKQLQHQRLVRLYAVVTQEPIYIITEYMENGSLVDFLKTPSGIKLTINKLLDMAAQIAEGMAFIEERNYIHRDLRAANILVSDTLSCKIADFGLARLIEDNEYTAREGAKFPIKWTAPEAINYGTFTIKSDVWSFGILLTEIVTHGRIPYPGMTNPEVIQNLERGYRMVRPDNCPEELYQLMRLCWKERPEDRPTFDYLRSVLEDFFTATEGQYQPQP
Numbers only, as −log10 of the molar value.

Examples from the recorded data:
| compound | pIC50 |
| --- | --- |
| Cc1cc2cc(C(=O)c3cnn(-c4cnc(Oc5c(F)cccc5F)cc4C)c3N)[nH]c2cc1NS(=O)(=O)c1cccc(Cl)n1 | 6.60 |
| Cc1cc(Oc2c(F)cccc2F)ncc1-n1ncc(C(=O)c2cc3cc(OC(F)F)c(N4CCCC4=O)cc3[nH]2)c1N | 8.18 |
| Cc1cc2cc(C(=O)c3cnn(-c4cnc(Oc5c(F)cccc5Cl)cc4C)c3N)[nH]c2cc1NS(C)(=O)=O | 7.85 |
| COc1cc2cc(C(=O)c3cnn(-c4cnc(Oc5ccccc5F)cc4C)c3N)[nH]c2cc1N1CCCS1(=O)=O | 8.24 |
| Cc1cnc(F)c(S(=O)(=O)Nc2cc3[nH]c(C(=O)c4cnn(-c5cnc(Oc6c(F)cccc6F)cc5C)c4N)cc3cc2OCC(F)F)c1 | 7.52 |
| Cc1cc2cc(C(=O)c3cnn(-c4cnc(Oc5c(F)cccc5F)cc4C)c3N)[nH]c2cc1N1C(=O)CNC1=O | 8.31 |
| Cc1cc(Oc2ccccc2F)ccc1-n1ncc(C(=O)c2cc3cc(F)c(N4C(=O)N[C@@H](C(C)C)C4=O)cc3[nH]2)c1N | 7.92 |
| COc1cccc(S(=O)(=O)Nc2cc3[nH]c(C(=O)c4cnn(-c5cnc(Oc6ccccc6F)cc5C)c4N)cc3cc2OCC(F)F)c1 | 6.66 |

The record that follows has no pIC50 shown yet.
Inquiry: Would you kindly share the measured pIC50 for Cc1cc2cc(C(=O)c3cnn(-c4c(C)cc(Oc5ccccc5F)cc4F)c3N)[nH]c2cc1NS(=O)(=O)CC(=O)N1CCOCC1 ?
Reply text: 7.72
